# protocol_description: Toxicity liver stage against HepG2, at 10uM
# Assay type: cell-based
# Design: test concentration 10 uM, cell line HepG2-A16-CD81EGFP
# run_parameters: human, HepG2-A16-CD81EGFP cells; read-out: INHIBITION
Reported cytotoxicity at 10 µM values for a set of compounds
Answer in %, number only, no unit symbol.

Examples from the recorded data:
CNC(=O)c1cc(-c2ccccc2)nc2ncnn12 : -4.66
CC(CNC(=O)c1ccc(C#N)cc1)N1CCc2ccccc21 (centres undefined) : 2.84
CC(O)CN1CCN(C(=O)c2cnc(OC(C)C)c(Cl)c2)CC1 (centres undefined) : -19.5

Please list cytotoxicity at 10 µM recorded for the compound Cn1nccc1-c1nnn2c1COC(CNCc1nccs1)C2 (centres undefined)
-1.07

----------
# protocol_description: Toxicity liver stage against HepG2, at 10uM
# Type: cell-based
# Parameters: test concentration 10 uM, cell line HepG2-A16-CD81EGFP
# run_parameters: human, HepG2-A16-CD81EGFP cells; read-out: INHIBITION
As shown below, each of these compounds has a reported cytotoxicity at 10 µM value.
API: value field is a number in %; no unit string.

Answered examples (10):
COc1ccc2c(c1)CCCN2Cc1nc(C)c(C)o1 : 4.74
CCc1ncnc(N2CCOCC2C2CC2)c1F (configuration not stated) : -6.62
COc1ccc(-c2nc(CSC3CCCCNC3=O)co2)cc1 (configuration not stated) : 20.9
Cc1ccc(CN(C)C(=O)C(C)n2cncn2)o1 (configuration not stated) : -3.33
C[C@H](c1ccc(Cl)cc1)n1c(C2CC2)n[nH]c1=O : 9.33
Cc1ccc(N2CC[C@H]3O[C@H](C(=O)NCc4ccco4)CC[C@H]32)nn1 : -71.9
CC(C)[C@H](NS(C)(=O)=O)C(=O)NCc1cc(-c2ccco2)nn1C : -10.5
Cc1cc(NC(=O)CN2CCCC2c2noc(C(C)C)n2)no1 (configuration not stated) : -14.3
CC(C)Oc1ccc(NCc2ccc([S+](C)[O-])cc2)c(F)c1 (configuration not stated) : 22.4
CC(C)c1cc(C(=O)NCCCN(C)C)nc(N2CCCC2)n1 : 8.49

# return recorded cytotoxicity at 10 µM for input CC1(C)CNC(=O)c2nc(C3CCCN(S(C)(=O)=O)C3)[nH]c2C1 (configuration not stated)
0.611

Give cytotoxicity at 10 µM for Cc1nc(Nc2cnccn2)cc(C2CCN(c3ncccn3)C2)n1 (configuration not stated)
-19.5

----------
cytotoxicity at 10 µM by entry:
# protocol_description: Toxicity liver stage against HepG2, at 10uM
# Assay type: cell-based
# Parameters: test concentration 10 uM, cell line HepG2-A16-CD81EGFP
# run_parameters: human, HepG2-A16-CD81EGFP cells; read-out: INHIBITION
The reply should be a number in %, with the unit left off.

Check out these entries, answers already filled in.
Cc1nc(C(=O)N2CCc3[nH]nc(Nc4ccccc4)c3C2)co1 : 6.11
CC(C)(C)c1nc(CN2CCCN(Cc3cccs3)CC2)no1 : 6

Supply cytotoxicity at 10 µM value. Item: CCNC(=O)C1(Cc2cc(-c3ccccc3)no2)CCCN(C(C)C)C1 (stereo not given)
1.62

Quick one: give measured cytotoxicity at 10 µM for CCOCC(=O)NC1(c2cccc(Cl)c2)CC1
3

Consider the molecule CN(CCC(C)(C)O)C(=O)C1CCC(=O)N(Cc2ccc(Cl)cc2)C1 (stereo not given) and give its recorded cytotoxicity at 10 µM.
7.67

Retrieve cytotoxicity at 10 µM measured for CCc1nc(N)nc(N2CCCC3(CCN(C)CC3)CC2)c1C and print it.
-179

Determine from records and report cytotoxicity at 10 µM for c1cncc(-c2ccc3c(c2)CCC32CCN(Cc3nccs3)CC2)c1
36

Quick one: give measured cytotoxicity at 10 µM for CC(C)(C)CN1CCC[C@H]1c1nc(-c2cncnc2N)no1
-3.66

Provide one value: measured cytotoxicity at 10 µM of O[C@H]1Cc2ccccc2[C@H]1Nc1ncccc1C(F)(F)F
5.95
